Origin of values: ChEMBL document CHEMBL5214935

# RUN_DESCRIPTION: Unbound fraction in human plasma
# Assay type: ADME, cell-free
Would you kindly list Fu for each of these molecules?
// no unit string in output, number only

So what does the record say about Fu for Cn1ncc(S(=O)(=O)N2CC[C@H](C(=O)Nc3ccc4scnc4c3)[C@@H](F)C2)c1Cl (racemic) ?
0.02

So what does the record say about Fu for Cc1nn(C)cc1S(=O)(=O)N1CCC(C(=O)Nc2ccc3scnc3c2)CC1 ?
0.14

So what does the record say about Fu for Cc1ncc(S(=O)(=O)N2CC[C@H](C(=O)Nc3ccc4scnc4c3)[C@@H](F)C2)s1 (racemic) ?
0.02

So what does the record say about Fu for Cc1nn(C)cc1S(=O)(=O)N1CC[C@H](C(=O)Nc2ccc3scnc3c2)[C@@H](F)C1 (racemic) ?
0.26
